Please provide measured pIC50 for the entries that follow.
molecular target: Phosphatidylinositol 4,5-bisphosphate 3-kinase catalytic subunit beta isoform (Homo sapiens); assay: Inhibition of PI3K-beta (unknown origin) by KinaseGlo assay
Sequence (P42338 whole entry, canonical isoform): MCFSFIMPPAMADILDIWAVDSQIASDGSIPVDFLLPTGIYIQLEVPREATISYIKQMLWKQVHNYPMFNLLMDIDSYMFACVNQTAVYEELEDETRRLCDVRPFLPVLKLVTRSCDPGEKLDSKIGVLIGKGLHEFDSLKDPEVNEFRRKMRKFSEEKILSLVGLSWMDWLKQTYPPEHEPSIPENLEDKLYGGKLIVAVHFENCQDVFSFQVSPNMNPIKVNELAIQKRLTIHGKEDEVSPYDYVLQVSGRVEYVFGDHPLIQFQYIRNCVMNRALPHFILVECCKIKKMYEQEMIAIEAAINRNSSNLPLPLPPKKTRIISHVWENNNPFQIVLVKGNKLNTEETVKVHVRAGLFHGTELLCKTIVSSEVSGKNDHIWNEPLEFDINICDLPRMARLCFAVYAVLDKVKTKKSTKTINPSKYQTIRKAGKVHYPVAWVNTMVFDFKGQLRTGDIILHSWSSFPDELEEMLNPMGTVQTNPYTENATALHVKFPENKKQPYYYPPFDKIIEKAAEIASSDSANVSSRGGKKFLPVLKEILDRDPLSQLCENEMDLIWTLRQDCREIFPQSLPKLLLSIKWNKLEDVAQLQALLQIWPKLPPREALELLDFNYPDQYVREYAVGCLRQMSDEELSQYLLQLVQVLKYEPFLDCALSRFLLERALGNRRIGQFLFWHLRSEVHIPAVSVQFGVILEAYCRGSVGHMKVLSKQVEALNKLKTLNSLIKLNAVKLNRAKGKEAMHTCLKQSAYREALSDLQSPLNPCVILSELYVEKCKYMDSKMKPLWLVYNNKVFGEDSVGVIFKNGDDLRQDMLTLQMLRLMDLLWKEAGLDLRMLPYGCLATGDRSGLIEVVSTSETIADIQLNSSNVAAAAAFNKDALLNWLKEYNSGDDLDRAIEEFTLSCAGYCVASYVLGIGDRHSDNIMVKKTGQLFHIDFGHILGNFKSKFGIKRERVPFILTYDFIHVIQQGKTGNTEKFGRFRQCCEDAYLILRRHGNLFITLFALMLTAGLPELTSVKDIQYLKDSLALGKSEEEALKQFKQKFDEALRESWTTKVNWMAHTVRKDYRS
Note: pIC50 values are expressed as the negative base-10 logarithm of concentration in M.

// lookup pIC50 for COc1ccc(-c2ccc3ncnc(O[C@@H]4CCN(C(=O)OC(C)(C)C)C4)c3c2)cc1OC
5.41

// lookup pIC50 for CCC(=O)N1CC[C@@H](Oc2cnc3ccc(-c4ccc(OC)c(OC)c4)cc3n2)C1
6.07

// lookup pIC50 for COc1ccc(-c2ccc3ncnc(O[C@@H]4CCN(C(C)=O)C4)c3c2)cc1OC
5.75

// lookup pIC50 for COc1ccc(-c2ccc3ncnc(O[C@H]4CCN(C(C)=O)C4)c3c2)cc1OC
6.52
